The entries below are paired with their reported protein stability index.
B1: SLC6A17 (parent)
chain: HMFTPKLDKMLDPQVWREAATQVF

- Variants of: B1
- Experiment summary: protein stability index of a GFP-peptide fusion (GPS, HEK-293T) (PSI 1-6); higher = more stable;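 note: lentivirally expressed fusions sorted by FACS into six bins by GFP to DsRed ratio, PSI derived from sequencing read proportions per bin multiplied by bin number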
- Condition parameters: c terminus: a fixed tail appended
Observation type: protein stability index

Variant key | Measured
D12S | 1.98
A19R | 2.03
K6P | 2.01
